Test system: 885724-159-R-J1-PDC KRAS PDC multicell spheroid viability;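 note: spheroids exposed to agents for 7 days before readout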
Test: Anticancer human tumor 885724-159-R-J1-PDC patient-derived pancreatic adenocarcinoma cell line growth inhibition [KRAS2]
Settings: second compound 3.16 µM; first compound 0.316 µM; stronger effect = lower value
Quantity: viability, T/C (%)

{"Compound": "CC(=O)OC12COC1CC(O)C1(C)C(=O)C(O)C3=C(C)C(OC(=O)C(O)C(NC(=O)OC(C)(C)C)c4ccccc4)CC(O)(C(OC(=O)c4ccccc4)C21)C3(C)C (stereo not given) + CNCc1ccccc1-c1csc(C(C)Nc2nc(C)nc3cc(OC)c(OC)cc23)c1", "System name": "885724-159-R-J1-PDC KRAS PDC multicell spheroid viability", "Quantity": "viability, T/C", "Measure unit": "%", "Result number": 0.54}
{"Compound": "Cn1nccc1Nc1nccc(-c2cc3c(s2)C(C)(C)N(CCN2CCOCC2)C3=O)n1 + CC1OCC2(CCN(c3cnc(Sc4ccnc(N)c4Cl)c(N)n3)CC2)C1N", "System name": "885724-159-R-J1-PDC KRAS PDC multicell spheroid viability", "Quantity": "viability, T/C", "Measure unit": "%", "Result number": 42.2}
{"Compound": "CC(C)NCC(C(=O)N1CCN(c2ncnc3c2C(C)CC3O)CC1)c1ccc(Cl)cc1 (stereo not given) + CNCc1ccccc1-c1csc(C(C)Nc2nc(C)nc3cc(OC)c(OC)cc23)c1", "System name": "885724-159-R-J1-PDC KRAS PDC multicell spheroid viability", "Quantity": "viability, T/C", "Measure unit": "%", "Result number": 1.56}
{"Compound": "CC(=O)OC12COC1CC(O)C1(C)C(=O)C(O)C3=C(C)C(OC(=O)C(O)C(NC(=O)OC(C)(C)C)c4ccccc4)CC(O)(C(OC(=O)c4ccccc4)C21)C3(C)C (stereo not given) + C=CC(=O)N1CCN(c2nc(=O)n(-c3c(C)ccnc3C(C)C)c3nc(-c4c(O)cccc4F)c(F)cc23)C(C)C1", "System name": "885724-159-R-J1-PDC KRAS PDC multicell spheroid viability", "Quantity": "viability, T/C", "Measure unit": "%", "Result number": 112}
{"Compound": "COc1cc2nccc(Oc3ccc(NC(=O)C4(C(=O)Nc5ccc(F)cc5)CC4)cc3)c2cc1OC + C=CC(=O)N1CCN(c2nc(OCC3CCCN3C)nc3c2CCN(c2cccc4cccc(C)c24)C3)CC1CC#N", "System name": "885724-159-R-J1-PDC KRAS PDC multicell spheroid viability", "Quantity": "viability, T/C", "Measure unit": "%", "Result number": 55}
{"Compound": "CCNC(=O)CC1N=C(c2ccc(Cl)cc2)c2cc(OC)ccc2-n2c(C)nnc21 (stereo not given) + CC1OCC2(CCN(c3cnc(Sc4ccnc(N)c4Cl)c(N)n3)CC2)C1N", "System name": "885724-159-R-J1-PDC KRAS PDC multicell spheroid viability", "Quantity": "viability, T/C", "Measure unit": "%", "Result number": 54.1}
{"Compound": "COc1cc2nccc(Oc3ccc(NC(=O)C4(C(=O)Nc5ccc(F)cc5)CC4)cc3)c2cc1OC + C=CC(=O)N1CCN(c2nc(=O)n(-c3c(C)ccnc3C(C)C)c3nc(-c4c(O)cccc4F)c(F)cc23)C(C)C1", "System name": "885724-159-R-J1-PDC KRAS PDC multicell spheroid viability", "Quantity": "viability, T/C", "Measure unit": "%", "Result number": 123}
{"Compound": "CCNC(=O)CC1N=C(c2ccc(Cl)cc2)c2cc(OC)ccc2-n2c(C)nnc21 (stereo not given) + C=CC(=O)N1CCN(c2nc(OCC3CCCN3C)nc3c2CCN(c2cccc4cccc(C)c24)C3)CC1CC#N", "System name": "885724-159-R-J1-PDC KRAS PDC multicell spheroid viability", "Quantity": "viability, T/C", "Measure unit": "%", "Result number": 39.2}
{"Compound": "CCN1CCN(Cc2ccc(Nc3ncc(F)c(-c4cc(F)c5nc(C)n(C(C)C)c5c4)n3)nc2)CC1 + CC1OCC2(CCN(c3cnc(Sc4ccnc(N)c4Cl)c(N)n3)CC2)C1N", "System name": "885724-159-R-J1-PDC KRAS PDC multicell spheroid viability", "Quantity": "viability, T/C", "Measure unit": "%", "Result number": 68.1}
{"Compound": "CC1COCCN1c1cc(-c2ccnn2C)c2ccnc(-c3ccn[nH]3)c2n1 (stereo not given) + C=CC(=O)N1CCN(c2nc(=O)n(-c3c(C)ccnc3C(C)C)c3nc(-c4c(O)cccc4F)c(F)cc23)C(C)C1", "System name": "885724-159-R-J1-PDC KRAS PDC multicell spheroid viability", "Quantity": "viability, T/C", "Measure unit": "%", "Result number": 58.9}
